- TEST_DESCRIPTION: Solubility of the compound in pH 1.2 JP1 fluid
- Assay type: physicochemical
OBSERVABLE: solubility

                               smiles_entry      result
0  C[C@@H](Cn1c(=O)[nH]/c(=N\c2ccc(Oc3ccnc(F)c3)cc2)n(Cc2ccc(Cl)cc2)c1=O)C(=O)O   2.2 µg/mL
1  C[C@@H](Cn1c(=O)[nH]/c(=N\c2ccc(Oc3ccccn3)cc2)n(Cc2ccc(Cl)cc2)c1=O)C(=O)O  31.5 µg/mL

Q: Bench note: what solubility did C[C@@H](Cn1c(=O)[nH]/c(=N\c2ccc(Oc3ccsn3)cc2)n(Cc2ccc(Cl)cc2)c1=O)C(=O)O show?
Ans: 0.8 µg/mL
